Every entry's value here was drawn from ChEMBL document CHEMBL4130392.

Provide the recorded Activity for the entries that follow.
- Tested on: Peritoneal macrophage
- PROTOCOL DETAILS: Induction of NO generation in Leishmania donovani MHOM/IN/AG/83 infected BALB/c mouse peritoneal macrophages assessed as nitrite levels after 48 hrs by Griess assay relative to untreated control; also: test concentration or dose not given here
- Type: functional
- CONDITION LABEL: record 2

[
  {
    "SMILES DATA": "C=CCc1ccc(OC(=O)c2ccccc2Cl)c(OC)c1",
    "Activity": "14.58 µM"
  }
]

For every listed record, write down its Activity.
1. C=CCc1ccc(OC(=O)[C@@H](N)Cc2c[nH]c3ccccc23)c(OC)c1
2. C=CCc1ccc(OCCCCCCCCCCCC)c(OC)c1
3. C=CCc1ccc(OC(=O)C2CCNCC2)c(OC)c1
4. C=CCc1ccc(OC(=O)CCCCCCCCC)c(OC)c1

["28.78 µM", "28.12 µM", "21.55 µM", "27.31 µM"]

So what's the measured Activity for this one? C=CCc1ccc(OC(=O)CCCCCCC)c(OC)c1
24.23 µM

###

Provide the recorded pEC50 for the entries that follow.
- System: Peritoneal macrophage
- PROTOCOL DETAILS: Cytotoxicity against BALB/c mouse peritoneal macrophages after 48 hrs by MTT assay
- Format: cell-based
Answers are plain numbers, as −log10 of the molar value.

[
  {
    "COMPOUND": "C=CCc1ccc(OCCCCCC)c(OC)c1",
    "pEC50": 3.57
  }
]

For every listed record, write down its pEC50.
1. C=CCc1ccc(OC(=O)c2ccccc2Cl)c(OC)c1
2. C=CCc1ccc(OCCCCCCCCCCCCCCCC)c(OC)c1
3. CCCCCCCCCCCCCCCCOP(=O)([O-])OCC[N+](C)(C)C [MILTEFOSINE]
4. C=CCc1ccc(OC(=O)CCCC)c(OC)c1
5. C=CCc1ccc(OC(C)=O)c(OC)c1 [EUGENYL ACETATE]
6. C=CCc1ccc(OC(=O)CCCCCCCCCCCCCCC)c(OC)c1

[3.56, 3.60, 4.39, 3.45, 3.45, 3.45]

###

- PROTOCOL DETAILS: Therapeutic index, ratio of EC50 for BALB/c mouse peritoneal macrophages to EC50 for Leishmania donovani MHOM/IN/AG/83 amastigotes
- Type: toxicity
- CONDITION LABEL: read-out: Ratio EC50
Values of selectivity ratio greater than or equal to 8 map to T; values below map to F.

Some solved entries appear below for comparison.
[
  {
    "SMILES DATA": "C=CCc1ccc(O)c(OC)c1",
    "ASSIGNED LABEL": "F"
  },
  {
    "SMILES DATA": "C=CCc1ccc(OC(=O)CCCC)c(OC)c1",
    "ASSIGNED LABEL": "F"
  },
  {
    "SMILES DATA": "C=CCc1ccc(OC(=O)[C@@H]2CCCN2)c(OC)c1",
    "ASSIGNED LABEL": "F"
  },
  {
    "SMILES DATA": "CCCCCCCCCCCCCCCCOP(=O)([O-])OCC[N+](C)(C)C",
    "ASSIGNED LABEL": "F"
  },
  {
    "SMILES DATA": "C=CCc1ccc(OCCCCCCCCCC)c(OC)c1",
    "ASSIGNED LABEL": "T"
  }
]

Hello, I need to know if C=CCc1ccc(OC(=O)CCCCCCCCCCC)c(OC)c1 has measured selectivity ratio not below 8. Thanks!
T

Hello, I need to know if C=CCc1ccc(OC)c(OC)c1 has measured selectivity ratio not below 8. Thanks!
F

Hello, I need to know if C=CCc1ccc(OCCCCCCCCCCCC)c(OC)c1 has measured selectivity ratio not below 8. Thanks!
T

Hello, I need to know if C=CCc1ccc(OC(=O)[C@@H](N)Cc2c[nH]c3ccccc23)c(OC)c1 has measured selectivity ratio not below 8. Thanks!
T

Hello, I need to know if C=CCc1ccc(OC(=O)c2c[nH]c3ccccc23)c(OC)c1 has measured selectivity ratio not below 8. Thanks!
T

Hello, I need to know if C=CCc1ccc(OCC)c(OC)c1 has measured selectivity ratio not below 8. Thanks!
F

Hello, I need to know if C=CCc1ccc(OC(=O)CC)c(OC)c1 has measured selectivity ratio not below 8. Thanks!
F
